Below, each of the compounds is paired with its reported IC50 value.
test system: Tmolt acute lymphoblastic T cell leukemia; test: Cytotoxicity, Tmolt acute lymphoblastic T cell leukemia; assay type: cell-based; conditions: T-cell; Tmolt; 72 hr at 37° C.; read-out: ED50 (cytotoxicity), Tmolt
Observed Property: IC50 (µg/mL)

compound="CC(C)[Si](OC[C@H]1O[C@@H](n2ccc(N)[n+]([BH2-]C#N)c2=O)C[C@@H]1O[Si](C(C)C)(C(C)C)C(C)C)(C(C)C)C(C)C [Compound 2d]" observed_property=IC50 observed_measurement=3.36
compound="N#C[BH2-][n+]1cn([C@H]2C[C@H](O)[C@@H](CO)O2)c2nc[nH]c(=O)c21 [Compound 3b, 2'-Deoxyinosine-N^7-cyanoborane]" observed_property=IC50 observed_measurement=1.73
compound="N#C[BH2-][n+]1c(N)ccn([C@H]2C[C@H](O)[C@@H](CO)O2)c1=O [Compound 3d, 2' Deoxycytidine-N3-cyanoborane]" observed_property=IC50 observed_measurement=1.13
compound="N#C[BH2-][n+]1cnc2c(ncn2[C@H]2C[C@H](O)[C@@H](CO)O2)c1N [Compound 3c, 2'-Deoxyadenosine-N1-cyanoborane]" observed_property=IC50 observed_measurement=1.36

====

Below, each of the compounds is paired with its reported IC50 value.
test system: KB epidermoid oral nesopharnyx; assay: Cytotoxicity, KB epidermoid oral nasopharynx; assay type: cell-based; conditions: Homo sapiens, read-out: ED50 (cytotoxicity), KB
Observed Property: IC50 (µg/mL)

compound="N#C[BH2-][n+]1c(N)ccn([C@H]2C[C@H](O)[C@@H](CO)O2)c1=O [Compound 3d, 2' Deoxycytidine-N3-cyanoborane]" test_system="KB epidermoid oral nesopharnyx" observed_property=IC50 observed_measurement=5.46
compound="N#C[BH2-][n+]1cnc2c(ncn2[C@H]2C[C@H](O)[C@@H](CO)O2)c1N [Compound 3c, 2'-Deoxyadenosine-N1-cyanoborane]" test_system="KB epidermoid oral nesopharnyx" observed_property=IC50 observed_measurement=3.12
compound="CC(C)[Si](OC[C@H]1O[C@@H](n2cnc3c(N)[n+]([BH2-]C#N)cnc32)C[C@@H]1O[Si](C(C)C)(C(C)C)C(C)C)(C(C)C)C(C)C [Compound 2c]" test_system="KB epidermoid oral nesopharnyx" observed_property=IC50 observed_measurement=5.79
compound="CC(C)[Si](OC[C@H]1O[C@@H](n2ccc(N)[n+]([BH2-]C#N)c2=O)C[C@@H]1O)(C(C)C)C(C)C [Compound 4]" test_system="KB epidermoid oral nesopharnyx" observed_property=IC50 observed_measurement=4.07
compound="CC(C)[Si](OC[C@H]1O[C@@H](n2c[n+]([BH2-]C#N)c3c(=O)[nH]c(N)nc32)C[C@@H]1O[Si](C(C)C)(C(C)C)C(C)C)(C(C)C)C(C)C [Compound 2a]" test_system="KB epidermoid oral nesopharnyx" observed_property=IC50 observed_measurement=2.67
compound="CC(C)[Si](OC[C@H]1O[C@@H](n2ccc(N)[n+]([BH2-]C#N)c2=O)C[C@@H]1O[Si](C(C)C)(C(C)C)C(C)C)(C(C)C)C(C)C [Compound 2d]" test_system="KB epidermoid oral nesopharnyx" observed_property=IC50 observed_measurement=5.72
compound="CC(C)[Si](OC[C@H]1O[C@@H](n2c[n+]([BH2-]C#N)c3c(=O)[nH]cnc32)C[C@@H]1O[Si](C(C)C)(C(C)C)C(C)C)(C(C)C)C(C)C [Compound 2b]" test_system="KB epidermoid oral nesopharnyx" observed_property=IC50 observed_measurement=5.29
compound="N#C[BH2-][n+]1cn([C@H]2C[C@H](O)[C@@H](CO)O2)c2nc[nH]c(=O)c21 [Compound 3b, 2'-Deoxyinosine-N^7-cyanoborane]" test_system="KB epidermoid oral nesopharnyx" observed_property=IC50 observed_measurement=3.45

====

tested on: Lung bronchogenic MB-9812; experiment: Cytotoxicity, lung bronchogenic MB-9812; format: cell-based; conditions: read-out: ED50 (cytotoxicity), Lung Bronchogenic
Observed Property: IC50 (µg/mL)

smiles_string=CC(C)[Si](OC[C@H]1O[C@@H](n2c[n+]([BH2-]C#N)c3c(=O)[nH]c(N)nc32)C[C@@H]1O[Si](C(C)C)(C(C)C)C(C)C)(C(C)C)C(C)C observed_measurement=4.05
smiles_string=CC(C)[Si](OC[C@H]1O[C@@H](n2c[n+]([BH2-]C#N)c3c(=O)[nH]cnc32)C[C@@H]1O[Si](C(C)C)(C(C)C)C(C)C)(C(C)C)C(C)C observed_measurement=6.2
smiles_string=CC(C)[Si](OC[C@H]1O[C@@H](n2ccc(N)[n+]([BH2-]C#N)c2=O)C[C@@H]1O)(C(C)C)C(C)C observed_measurement=5.58
smiles_string=CC(C)[Si](OC[C@H]1O[C@@H](n2cnc3c(N)[n+]([BH2-]C#N)cnc32)C[C@@H]1O[Si](C(C)C)(C(C)C)C(C)C)(C(C)C)C(C)C observed_measurement=5.58

====

test system: Human glioma cell EH 118 MG; experiment: Cytotoxicity, human glioma cell EH 118 MG; type: cell-based; details: read-out: ED50 (cytotoxicity), Glioma
Observed Property: IC50 (µg/mL)

smiles_string=CC(C)[Si](OC[C@H]1O[C@@H](n2cnc3c(N)[n+]([BH2-]C#N)cnc32)C[C@@H]1O[Si](C(C)C)(C(C)C)C(C)C)(C(C)C)C(C)C observed_property=IC50 unit_spec=µg/mL observed_measurement=4.99
smiles_string=CC(C)[Si](OC[C@H]1O[C@@H](n2c[n+]([BH2-]C#N)c3c(=O)[nH]c(N)nc32)C[C@@H]1O[Si](C(C)C)(C(C)C)C(C)C)(C(C)C)C(C)C observed_property=IC50 unit_spec=µg/mL observed_measurement=7.61
smiles_string=CC(C)[Si](OC[C@H]1O[C@@H](n2ccc(N)[n+]([BH2-]C#N)c2=O)C[C@@H]1O)(C(C)C)C(C)C observed_property=IC50 unit_spec=µg/mL observed_measurement=3.43
smiles_string=CC(C)[Si](OC[C@H]1O[C@@H](n2c[n+]([BH2-]C#N)c3c(=O)[nH]cnc32)C[C@@H]1O[Si](C(C)C)(C(C)C)C(C)C)(C(C)C)C(C)C observed_property=IC50 unit_spec=µg/mL observed_measurement=6.21

====

test: Stability in aqueous medium by HPLC; type: physicochemical; conditions: 0.01 M TEAAc; 168 h; HPLC; read-out: decomposed in aqueous medium
Observed Property: degraded at 168 h

molecule="N#C[BH2-][n+]1cn([C@H]2C[C@H](O)[C@@H](CO)O2)c2nc[nH]c(=O)c21 [Compound 3b, 2'-Deoxyinosine-N^7-cyanoborane]" observed_property="degraded at 168 h" observed_measurement="> 50%"

====

system: SW480 human colorectal carcinoma; assay: Cytotoxicity, colon adenocarcinoma SW480 human colorectal carcinoma; type: cell-based; details: Homo sapiens, SW480, read-out: ED50 (cytotoxicity), Adeno Carcinoma SW480
Observed Property: IC50

smiles_string=CC(C)[Si](OC[C@H]1O[C@@H](n2cnc3c(N)[n+]([BH2-]C#N)cnc32)C[C@@H]1O[Si](C(C)C)(C(C)C)C(C)C)(C(C)C)C(C)C observed_measurement="2.87 µg/mL"
smiles_string=CC(C)[Si](OC[C@H]1O[C@@H](n2c[n+]([BH2-]C#N)c3c(=O)[nH]c(N)nc32)C[C@@H]1O[Si](C(C)C)(C(C)C)C(C)C)(C(C)C)C(C)C observed_measurement="2.67 µg/mL"
smiles_string=CC(C)[Si](OC[C@H]1O[C@@H](n2ccc(N)[n+]([BH2-]C#N)c2=O)C[C@@H]1O)(C(C)C)C(C)C observed_measurement="2.71 µg/mL"
smiles_string=CC(C)[Si](OC[C@H]1O[C@@H](n2c[n+]([BH2-]C#N)c3c(=O)[nH]cnc32)C[C@@H]1O[Si](C(C)C)(C(C)C)C(C)C)(C(C)C)C(C)C observed_measurement="2.57 µg/mL"

Hello, the source for this data is patent US5130302A, in case you need it.
